Just for reference, patent US20200317779A1 is where these values come from.

System: recombinant human CD3ε/δ heterodimer (human) (UniProt P07766)
Sequence (P07766 23-126, stated change not applied, chain 1 of 2): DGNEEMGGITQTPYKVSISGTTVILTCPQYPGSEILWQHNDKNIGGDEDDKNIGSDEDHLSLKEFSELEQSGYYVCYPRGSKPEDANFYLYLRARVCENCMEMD
Sequence (P04234 22-105, stated change not applied, chain 2 of 2, further chain): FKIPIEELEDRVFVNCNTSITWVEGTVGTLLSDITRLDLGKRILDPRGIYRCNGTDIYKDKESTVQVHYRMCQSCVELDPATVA
Test name: BLI (Octet), antigen on anti-Penta His sensor, antibody 50 nM
Measure name: pKd
// scale note: pKd = -log10(conc_M); give the bare number

Known pKd results, listed for orientation:
INSERT INTO assay_data (binder, measure_name, recorded_measurement) VALUES
  ('C15 (antibody, human IgG1, lambda, L234A L235A, V domains shown) VH: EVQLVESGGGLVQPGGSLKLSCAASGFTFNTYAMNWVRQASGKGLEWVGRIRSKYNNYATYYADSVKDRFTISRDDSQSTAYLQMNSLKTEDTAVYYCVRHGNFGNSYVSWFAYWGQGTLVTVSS VL: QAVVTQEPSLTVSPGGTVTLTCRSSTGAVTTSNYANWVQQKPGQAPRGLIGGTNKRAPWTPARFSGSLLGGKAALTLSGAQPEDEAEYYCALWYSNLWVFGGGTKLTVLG', 'pKd', 9.37),
  ('D07 (antibody, human IgG1, lambda, L234A L235A, V domains shown) VH: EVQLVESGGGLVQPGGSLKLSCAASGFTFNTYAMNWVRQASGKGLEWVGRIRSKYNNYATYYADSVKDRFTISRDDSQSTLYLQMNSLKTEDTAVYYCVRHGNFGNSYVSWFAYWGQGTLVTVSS VL: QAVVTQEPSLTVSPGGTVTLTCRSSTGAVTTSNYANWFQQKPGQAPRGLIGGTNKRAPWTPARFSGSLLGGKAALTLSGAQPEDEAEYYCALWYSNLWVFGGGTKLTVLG', 'pKd', 7.72),
  ('D08 (antibody, human IgG1, lambda, L234A L235A, V domains shown) VH: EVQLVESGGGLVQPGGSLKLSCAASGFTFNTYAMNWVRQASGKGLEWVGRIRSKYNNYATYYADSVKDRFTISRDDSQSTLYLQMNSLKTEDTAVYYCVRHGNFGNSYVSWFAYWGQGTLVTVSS VL: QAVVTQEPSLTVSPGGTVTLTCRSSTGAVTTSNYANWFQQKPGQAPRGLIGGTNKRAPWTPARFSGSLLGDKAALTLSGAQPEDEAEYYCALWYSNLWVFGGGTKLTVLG', 'pKd', 7.46),
  ('C07 (antibody, human IgG1, lambda, L234A L235A, V domains shown) VH: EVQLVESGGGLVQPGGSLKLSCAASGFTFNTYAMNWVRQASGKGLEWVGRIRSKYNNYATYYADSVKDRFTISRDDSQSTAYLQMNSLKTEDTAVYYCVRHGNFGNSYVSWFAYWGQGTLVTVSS VL: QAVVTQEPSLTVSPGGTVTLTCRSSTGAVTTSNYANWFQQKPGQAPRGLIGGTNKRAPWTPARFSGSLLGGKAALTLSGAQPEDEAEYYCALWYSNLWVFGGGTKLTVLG', 'pKd', 7.64),
  ('D15 (antibody, human IgG1, lambda, L234A L235A, V domains shown) VH: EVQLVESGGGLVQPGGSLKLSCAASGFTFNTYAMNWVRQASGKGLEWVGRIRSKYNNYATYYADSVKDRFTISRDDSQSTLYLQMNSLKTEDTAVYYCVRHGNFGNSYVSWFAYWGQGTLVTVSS VL: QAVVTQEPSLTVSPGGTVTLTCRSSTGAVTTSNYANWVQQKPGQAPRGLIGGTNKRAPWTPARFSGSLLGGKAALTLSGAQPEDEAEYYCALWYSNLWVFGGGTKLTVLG', 'pKd', 9.53);

## Input Suppose we examine the binder E16 (antibody, human IgG1, lambda, L234A L235A, V domains shown) VH: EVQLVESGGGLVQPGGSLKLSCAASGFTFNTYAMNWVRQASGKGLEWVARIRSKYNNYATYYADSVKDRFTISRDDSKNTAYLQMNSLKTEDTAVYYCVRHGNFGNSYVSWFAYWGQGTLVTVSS VL: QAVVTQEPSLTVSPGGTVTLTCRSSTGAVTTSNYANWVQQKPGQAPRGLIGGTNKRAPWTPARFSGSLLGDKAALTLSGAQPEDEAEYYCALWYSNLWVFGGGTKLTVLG ; what pKd value has been reported?
## Output 8.75

## Input Given F15 (antibody, human IgG1, lambda, L234A L235A, V domains shown) VH: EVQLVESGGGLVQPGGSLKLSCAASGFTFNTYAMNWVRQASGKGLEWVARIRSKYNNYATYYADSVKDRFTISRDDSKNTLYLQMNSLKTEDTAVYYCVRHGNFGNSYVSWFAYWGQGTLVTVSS VL: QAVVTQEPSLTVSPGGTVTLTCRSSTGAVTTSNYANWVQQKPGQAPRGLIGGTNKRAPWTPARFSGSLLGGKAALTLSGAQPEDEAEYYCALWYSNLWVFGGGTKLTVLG , state its recorded pKd.
## Output 8.98

## Input What value of pKd has been reported for the following binder? E15 (antibody, human IgG1, lambda, L234A L235A, V domains shown) VH: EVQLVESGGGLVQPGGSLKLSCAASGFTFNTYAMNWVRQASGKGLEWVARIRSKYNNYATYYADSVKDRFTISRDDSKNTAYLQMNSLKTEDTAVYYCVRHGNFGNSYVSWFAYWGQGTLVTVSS VL: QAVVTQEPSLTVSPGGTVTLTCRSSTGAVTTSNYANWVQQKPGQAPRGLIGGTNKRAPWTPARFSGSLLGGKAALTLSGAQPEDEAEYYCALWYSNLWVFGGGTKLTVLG
## Output 8.76

## Input Requested field: pKd. Item: B15 (antibody, human IgG1, lambda, L234A L235A, V domains shown) VH: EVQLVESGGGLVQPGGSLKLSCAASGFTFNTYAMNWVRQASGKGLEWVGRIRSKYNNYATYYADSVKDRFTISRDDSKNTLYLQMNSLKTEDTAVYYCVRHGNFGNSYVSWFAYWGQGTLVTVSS VL: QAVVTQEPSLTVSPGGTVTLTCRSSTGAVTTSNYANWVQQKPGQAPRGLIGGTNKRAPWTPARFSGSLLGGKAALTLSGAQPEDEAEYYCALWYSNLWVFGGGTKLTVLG
## Output 9.28
